# Experiment: Tmax in BALB/c mouse at 100 mg/kg, po administered as single dose
# Format: ADME, organism-based
# Protocol Conditions: in vivo
Measured Metric: Tmax (min)
Supply the numeric figure in min, leaving out any unit text.

Input: For O=c1cc(-c2ccc(O)cc2)oc2ccc(O)c(CN3CCC3)c12 , what is its reported Tmax?
Output: 15

* * *

# Experiment: Cmax in BALB/c mouse at 5 mg/kg, iv administered as single dose
# Assay type: ADME, organism-based
# Set-up: route intravenous, dose 5 mg/kg
# Protocol Conditions: in vivo
Measured Metric: Cmax (ng/mL)
Supply the numeric figure in ng/mL, leaving out any unit text.

Input: For O=c1cc(-c2ccc(O)cc2)oc2ccc(O)c(CN3CCC3)c12 , what is its reported Cmax?
Output: 4460
